Test system: NCI-H460
Assay: NCI tumour cell line growth inhibition, 48 h
Activity calls are given as the source filed them. Rule as the data show it: active = GI50 up to about 1.1 µM and inactive = higher.
Listing of entries alongside the reported GI50.

Worked examples follow.
compound | GI50
CC(CN(C)C)C(O)(c1ccccc1)c1ccccc1 (configuration not stated) | > 100 µM (inactive)
CN(C)S(=O)(=O)Nc1nnc(S(N)(=O)=O)s1 | > 100 µM (inactive)
COc1cc(C2c3cc4c(cc3C(O)C3CCC(=O)N23)OCO4)cc(OC)c1OC (configuration not stated) | 39.4 µM (inactive)

Continue with the next compound.
## Input Quick one: GI50 for CCCC(O)[C@@H](O)c1ccc2c(c1O)C(=O)c1c(OC)cccc1C2=O (some centres not stated) ?
## Output 29 µM (inactive)
